- protocol.summary: Toxicity liver stage against HepG2, at 10uM
- Format: cell-based
- Set-up: test concentration 10 uM, cell line HepG2-A16-CD81EGFP
- experimental.setup: human, HepG2-A16-CD81EGFP cells; read-out: INHIBITION
The compounds listed here are annotated with their cytotoxicity at 10 µM.
Answer shape: numeric part, then the unit.

Before answering, review these 2 worked examples.
CC(C)C1CN(c2cccc(C#N)n2)CCCN1CC1CC1 (stereo not given) :: -6.55%
O=C(c1ccc(=O)[nH]c1)N1CCCC2(C=Cc3ccccc3O2)CC1 (stereo not given) :: 12.5%

## Input Record request: cytotoxicity at 10 µM value, item Cn1ccc(NC(=O)Cc2cccc(F)c2)n1
## Output 1.44%

## Input Record request: cytotoxicity at 10 µM value, item O=C(Nc1nncs1)NC1CCCc2c1cnn2CCO (stereo not given)
## Output -17.2%

## Input Record request: cytotoxicity at 10 µM value, item CCc1cnc(CNC(=O)NCCCO)s1
## Output -5.42%

## Input Record request: cytotoxicity at 10 µM value, item CO[C@H]1CO[C@@]2(CCCN(C(=O)C3CC=CC3)C2)C1
## Output -98.6%

## Input Record request: cytotoxicity at 10 µM value, item CCC(O)CN1CCN(C(=O)Cc2c(C)nc(C)[nH]c2=O)CC1 (stereo not given)
## Output -19.3%

## Input Record request: cytotoxicity at 10 µM value, item CC(C)=CCC/C(C)=C\CNCc1ccco1
## Output -12.6%

## Input Record request: cytotoxicity at 10 µM value, item Cc1ccc(N2CCCC(NC(=O)C(C)(C)C#N)C2=O)cc1 (stereo not given)
## Output -2.42%

## Input Record request: cytotoxicity at 10 µM value, item CCOCC1CN(C(=O)c2cnoc2C)Cc2cn(C)nc21 (stereo not given)
## Output 12.9%

## Input Record request: cytotoxicity at 10 µM value, item Cc1nc(N2CCCCC2)ncc1C(=O)N1CC(C)(C)[C@@](C)(O)C1
## Output 1.41%

## Input Record request: cytotoxicity at 10 µM value, item CCc1oc(C(=O)N2CCCC(c3nnn[nH]3)C2)cc1C (stereo not given)
## Output 9.09%

## Input Record request: cytotoxicity at 10 µM value, item Cc1ncc(-c2ccccn2)c(CCNC(=O)CCC2CCCO2)n1 (stereo not given)
## Output 11.7%

## Input Record request: cytotoxicity at 10 µM value, item N#CC1CCCN(c2ncnc3c2CCN(Cc2ccccc2)CC3)C1 (stereo not given)
## Output -3.64%

## Input Record request: cytotoxicity at 10 µM value, item CCC(CC)C(=O)n1ccn(S(=O)(=O)c2ccc(C)cc2)c1=O
## Output 11.5%

###

- protocol.summary: Toxicity liver stage against HepG2, at 10uM
- Format: cell-based
- Design: test concentration 10 uM, cell line HepG2-A16-CD81EGFP
- experimental.setup: human, HepG2-A16-CD81EGFP cells; read-out: INHIBITION
The molecules listed here are annotated with their cytotoxicity at 10 µM.
Provide the reading as a plain figure in %.

Before answering, review these 2 worked examples.
Cc1nc(CN(C)C2CCN(Cc3cccc4c3OCCO4)C2)no1 (stereo not drawn) :: -13.9
CC(C)n1ncc2c1NC(=O)CC21C(=O)Nc2c(Br)cc(Cl)cc21 (stereo not drawn) :: 5.99

--- query ---
## Input Record request: cytotoxicity at 10 µM value, item CN(C)c1ccc2c(c1)CN(C(=O)c1cnccn1)C2c1cnco1 (stereo not drawn)
## Output 3.55
